Origin of values: PubChem BioAssay AID1963981

Test system: 354836-022-R-J1-PDC multicell spheroid viability;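 further: spheroids exposed to agents for seven days before the viability read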
Experiment: Anticancer human tumor 354836-022-R-J1-PDC patient-derived head and neck squamous cell carcinoma cell line growth inhibition [PI3K]
Settings: second compound 0.316 µM; first compound 0.00316 µM; active compounds read low
measurementKind: viability, T/C

A selection of reference data follows.
molecule	viability, T/C
CCN1CCN(Cc2ccc(Nc3ncc(F)c(-c4cc(F)c5nc(C)n(C(C)C)c5c4)n3)nc2)CC1 + Cc1nc(NC(=O)N2CCCC2C(N)=O)sc1-c1ccnc(C(C)(C)C(F)(F)F)c1	87.6%
CCN1CCN(Cc2ccc(Nc3ncc(F)c(-c4cc(F)c5nc(C)n(C(C)C)c5c4)n3)nc2)CC1 + CC(Nc1ccc2c(c1)OCCn1cc(N3C(=O)OCC3C(F)F)nc1-2)C(N)=O	65%
CCN1CCN(Cc2ccc(Nc3ncc(F)c(-c4cc(F)c5nc(C)n(C(C)C)c5c4)n3)nc2)CC1 + COc1c(OCCCN2CCOCC2)ccc2c3n(c(=NC(=O)c4cnc(N)nc4)nc12)CCN3	11.8%

Shift focus to the following entry.
Let me know recorded viability, T/C for CC(=O)c1c(C)c2cnc(Nc3ccc(N4CCNCC4)cn3)nc2n(C2CCCC2)c1=O + CC(Nc1ccc2c(c1)OCCn1cc(N3C(=O)OCC3C(F)F)nc1-2)C(N)=O , thanks.
70.8%
